Where do the numbers come from? From ChEMBL document CHEMBL4038311.

viability at 20 µM overview
tested on: MCF7; experiment: Anticancer activity against human MCF7 cells assessed as cell viability at 20 uM after 48 hrs by CCK8 assay relative to control; assay type: functional; conditions: MCF7, 48 h, read-out: Activity

- COMPOUND_STRING: "C[C@H]1[C@H](C)CC[C@]2(C(=O)O)CC[C@]3(C)C(=CC[C@@H]4[C@@]5(C)Cc6cnn(CCO)c6C(C)(C)[C@@H]5CC[C@]43C)[C@H]12"
  SCALE_UNIT: "%"
  viability at 20 µM: 40.5
- COMPOUND_STRING: "C[C@H]1[C@H](C)CC[C@]2(C(=O)O)CC[C@]3(C)C(=CC[C@@H]4[C@@]5(C)Cc6cnn(-c7ccncc7)c6C(C)(C)[C@@H]5CC[C@]43C)[C@H]12"
  SCALE_UNIT: "%"
  viability at 20 µM: 39.7
- COMPOUND_STRING: "C[C@H]1[C@H](C)CC[C@]2(C(=O)O)CC[C@]3(C)C(=CC[C@@H]4[C@@]5(C)Cc6c(C(F)(F)F)nn(C)c6C(C)(C)[C@@H]5CC[C@]43C)[C@H]12"
  SCALE_UNIT: "%"
  viability at 20 µM: 47.6
- COMPOUND_STRING: "C[C@H]1[C@H](C)CC[C@]2(C(=O)O)CC[C@]3(C)C(=CC[C@@H]4[C@@]5(C)CC[C@H](O)C(C)(C)[C@@H]5CC[C@]43C)[C@H]12"
  SCALE_UNIT: "%"
  viability at 20 µM: 57.6
- COMPOUND_STRING: "C[C@H]1[C@H](C)CC[C@]2(C(=O)O)CC[C@]3(C)C(=CC[C@@H]4[C@@]5(C)Cc6cnn(-c7ccc(C#N)cc7)c6C(C)(C)[C@@H]5CC[C@]43C)[C@H]12"
  SCALE_UNIT: "%"
  viability at 20 µM: 25.2
- COMPOUND_STRING: "C[C@H]1[C@H](C)CC[C@]2(C(=O)O)CC[C@]3(C)C(=CC[C@@H]4[C@@]5(C)Cc6cnn(-c7cccc(F)c7)c6C(C)(C)[C@@H]5CC[C@]43C)[C@H]12"
  SCALE_UNIT: "%"
  viability at 20 µM: 46.6
